- test.method.notes: Pharmacokinetics of intraperitoneal or intravenous injection in CD1 mice (plasma, LC/MS/MS)
- Format: in vivo
- test.context: male, CD1, mouse, plasma, iv, 1 mg/kg, IV 1.0 mg/kg, 0.033 h, read-out: Conc. Mouse 2
- Protocol: Pharmacokinetics of Intraperitoneal or Intravenous Injection of Example 1 or Example 2. The pharmacokinetics of Example 1 and 2 was examined for intraperitoneal and intravenous administration. The desired serial concentrations of working solutions were achieved by diluting stock solution (1 mg/mL in DMSO) of analyte with methanol. […] Then, 10 μL of the diluted supernatant was injected into the LC/MS/MS system for quantitative analysis. […]
assay.endpoint: concentration at 0.033 h (ng/mL)

>  <compound.structure.string>
COc1cc2c(Oc3ccc(NC(=O)C4(C(=O)Nc5ccc(F)cc5)CC4)cc3F)ccnc2cc1OCCCOCCCOCCC(=O)N[C@H](C(=O)N1C[C@H](O)C[C@H]1C(=O)NCc1ccc(-c2scnc2C)cc1)C(C)(C)C

>  <units.of.measure>
ng/mL

>  <quantitative.result>
2820

$$$$

---

- target.of.assay: p38α (Homo sapiens)
- Construct: selectively degrades p38α, whereas exemplary PROTAC 46 (10-atom linker, phenyl attachment) selectively degrades p38δ in MDA-MB-231 cells; endogenous in cells; host or cells: MDA-MB-231
- Sequence (Q16539 whole entry): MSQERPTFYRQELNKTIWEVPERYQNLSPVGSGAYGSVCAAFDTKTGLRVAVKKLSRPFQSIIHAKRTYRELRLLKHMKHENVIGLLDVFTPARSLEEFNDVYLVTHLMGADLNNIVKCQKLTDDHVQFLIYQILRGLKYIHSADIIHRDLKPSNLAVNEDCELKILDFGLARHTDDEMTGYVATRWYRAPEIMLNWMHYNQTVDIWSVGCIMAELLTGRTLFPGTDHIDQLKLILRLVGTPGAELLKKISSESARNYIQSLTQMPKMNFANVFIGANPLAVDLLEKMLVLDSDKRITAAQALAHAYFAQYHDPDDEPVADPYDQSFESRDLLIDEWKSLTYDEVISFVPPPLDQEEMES
- test.method.notes: Cellular assay of target protein degradation (MDA-MB-231 cells, ELISA)
- Assay type: cell-based
assay.endpoint: DC50

>  <compound.structure.string>
COc1cc2c(Oc3ccc(NC(=O)C4(C(=O)Nc5ccc(F)cc5)CC4)cc3F)ccnc2cc1OCCCCOCCCCOCC(=O)N[C@H](C(=O)N1C[C@H](O)C[C@H]1C(=O)NCc1ccc(-c2scnc2C)cc1)C(C)(C)C

>  <target.of.assay>
p38α (Homo sapiens)

>  <result>
9.5 nM

$$$$
>  <compound.structure.string>
COc1cc2c(Oc3ccc(NC(=O)C4(C(=O)Nc5ccc(F)cc5)CC4)cc3F)ccnc2cc1OCCCCOCCCCOc1cc(-c2scnc2C)ccc1CNC(=O)[C@@H]1C[C@@H](O)CN1C(=O)[C@H](C(C)C)N1Cc2ccccc2C1=O

>  <target.of.assay>
p38α (Homo sapiens)

>  <result>
> 5000 nM

$$$$
>  <compound.structure.string>
COc1cc2c(Oc3ccc(NC(=O)C4(C(=O)Nc5ccc(F)cc5)CC4)cc3F)ccnc2cc1OCCOCCOCCOc1cc(-c2scnc2C)ccc1CNC(=O)[C@@H]1C[C@@H](O)CN1C(=O)[C@H](C(C)C)N1Cc2ccccc2C1=O

>  <target.of.assay>
p38α (Homo sapiens)

>  <result>
> 5000 nM

$$$$
>  <compound.structure.string>
COc1cc2c(Oc3ccc(NC(=O)C4(C(=O)Nc5ccc(F)cc5)CC4)cc3F)ccnc2cc1OCCCOCCCOCCCOc1cc(-c2scnc2C)ccc1CNC(=O)[C@@H]1C[C@@H](O)CN1C(=O)[C@H](C(C)C)N1Cc2ccccc2C1=O

>  <target.of.assay>
p38α (Homo sapiens)

>  <result>
> 5000 nM

$$$$
>  <compound.structure.string>
COc1cc2c(Oc3ccc(NC(=O)C4(C(=O)Nc5ccc(F)cc5)CC4)cc3F)ccnc2cc1OCCCOCCOCCC(=O)N[C@H](C(=O)N1C[C@H](O)C[C@H]1C(=O)NCc1ccc(-c2scnc2C)cc1)C(C)(C)C

>  <target.of.assay>
p38α (Homo sapiens)

>  <result>
18.8 nM

$$$$
>  <compound.structure.string>
COc1cc2c(Oc3ccc(NC(=O)C4(C(=O)Nc5ccc(F)cc5)CC4)cc3F)ccnc2cc1OCCOCCOCCC(=O)N[C@H](C(=O)N1C[C@H](O)C[C@H]1C(=O)NCc1ccc(-c2scnc2C)cc1)C(C)(C)C

>  <target.of.assay>
p38α (Homo sapiens)

>  <result>
40.1 nM

$$$$
